Tested on: A. baumannii
Test: MIC, broth microdilution, CDC/FDA Antibiotic Resistance Isolate Bank (Example 7, Tables 9, 13, 14)
Format: cell-based, Acinetobacter baumannii
Conditions: Acinetobacter baumannii, KUB No. 5722, AR Bank #259; read-out: MIC
Exercise: for every item that follows, state its recorded MIC.
Could you give me the number in µg/mL? Just the number is fine.

Which MIC is reported for this compound? C[C@H]1COc2c(N3CCN(C)CC3)c(F)cc3c(=O)c(C(=O)O)cn1c23 [Levofloxacin, levofloxacin]
16

Requested read-out: MIC. Entry: CO/N=C(\C(=O)N[C@@H]1C(=O)N2C(C(=O)[O-])=C(C[n+]3ccn4ncccc43)CS[C@H]12)c1nsc(N)n1 [Cefozopran, cefozopran]
8

What value of MIC has been recorded for this entry: CN(C)c1cc(NC(=O)CNC(C)(C)C)c(O)c2c1C[C@H]1C[C@H]3[C@H](N(C)C)C(O)=C(C(N)=O)C(=O)[C@@]3(O)C(O)=C1C2=O [Tigecycline, tigecycline]
1

Param item = CC(C)(O/N=C(\C(=O)N[C@@H]1C(=O)N2C(C(=O)[O-])=C(C[N+]3(CCNC(=O)c4ccc(O)c(O)c4Cl)CCCC3)CS[C@H]12)c1csc(N)n1)C(=O)O [Cefiderocol, cefiderocol] ; retrieve measured MIC.
0.12

Given the entry NCC[C@H](O)C(=O)N[C@@H]1C[C@H](N)[C@@H](O[C@H]2O[C@H](CN)[C@@H](O)[C@H](O)[C@H]2O)[C@H](O)[C@H]1O[C@H]1O[C@H](CO)[C@@H](O)[C@H](N)[C@H]1O [Amikacin, amikacin] , report its measured MIC.
32

---

System: Enterobacterales
Test: MIC, broth microdilution, CDC/FDA Antibiotic Resistance Isolate Bank (Example 7, Tables 8, 11, 12)
Type: cell-based
Details: Serratia marcescens, KUB No. 5619, AR Bank # 122; read-out: MIC
assay_endpoint: MIC

May I ask what MIC has been recorded for C[C@H]1COc2c(N3CCN(C)CC3)c(F)cc3c(=O)c(C(=O)O)cn1c23 ?
0.5 µg/mL

So what does the record say about MIC for C[C@H]1[C@H](NC(=O)/C(=N\OC(C)(C)C(=O)O)c2csc(N)n2)C(=O)N1S(=O)(=O)O ?
16 µg/mL

Need MIC, item O=C(O)c1cn(C2CC2)c2cc(N3CCNCC3)c(F)cc2c1=O
0.06 µg/mL

So what's the measured MIC for this one? CO/N=C(\C(=O)N[C@@H]1C(=O)N2C(C(=O)[O-])=C(C[n+]3ccn4ncccc43)CS[C@H]12)c1nsc(N)n1
0.12 µg/mL

What measured MIC goes with NCC[C@H](O)C(=O)N[C@@H]1C[C@H](N)[C@@H](O[C@H]2O[C@H](CN)[C@@H](O)[C@H](O)[C@H]2O)[C@H](O)[C@H]1O[C@H]1O[C@H](CO)[C@@H](O)[C@H](N)[C@H]1O ?
1 µg/mL

Please give the measured MIC for this compound: CC(C)(O/N=C(\C(=O)N[C@@H]1C(=O)N2C(C(=O)[O-])=C(C[N+]3(CCNC(=O)c4ccc(O)c(O)c4Cl)CCCC3)CS[C@H]12)c1csc(N)n1)C(=O)O
0.12 µg/mL

---

System: Enterobacterales
Experiment: MIC, broth microdilution, CDC/FDA Antibiotic Resistance Isolate Bank (Example 7, Tables 8, 11, 12)
Format: cell-based
Conditions: Escherichia coli, KUB No. 5616, AR Bank # 119; read-out: MIC
For each entry below, report its MIC value.

Fill in the blank: the reported MIC of CO/N=C(\C(=O)N[C@@H]1C(=O)N2C(C(=O)[O-])=C(C[n+]3ccn4ncccc43)CS[C@H]12)c1nsc(N)n1 [Cefozopran, cefozopran] is ____.
> 64 µg/mL

Record request: MIC value, item NCC[C@H](O)C(=O)N[C@@H]1C[C@H](N)[C@@H](O[C@H]2O[C@H](CN)[C@@H](O)[C@H](O)[C@H]2O)[C@H](O)[C@H]1O[C@H]1O[C@H](CO)[C@@H](O)[C@H](N)[C@H]1O [Amikacin, amikacin]
> 64 µg/mL

Entry O=C(O)c1cn(C2CC2)c2cc(N3CCNCC3)c(F)cc2c1=O [Ciprofloxacin, ciprofloxacin] : reported MIC = ?
> 64 µg/mL

Cited source: patent EP4635500A1
